- Study target: Human immunodeficiency virus type 1 integrase (Human immunodeficiency virus 1)
- Sequence (Q7ZJM1 whole entry): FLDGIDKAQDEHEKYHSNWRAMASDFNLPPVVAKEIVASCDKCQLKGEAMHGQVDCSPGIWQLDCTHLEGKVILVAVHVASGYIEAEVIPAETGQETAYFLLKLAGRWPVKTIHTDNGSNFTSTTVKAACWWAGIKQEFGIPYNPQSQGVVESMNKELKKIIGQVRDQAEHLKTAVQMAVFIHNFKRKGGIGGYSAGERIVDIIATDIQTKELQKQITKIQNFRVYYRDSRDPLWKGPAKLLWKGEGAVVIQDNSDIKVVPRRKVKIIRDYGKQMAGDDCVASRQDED
- Assay procedure: Inhibition of HIV-1 integrase strand transfer activity
IC50 listing for selected compounds.
Write the answer as a number in nM, unit excluded.

Please review the entries below; each comes with its answer.
* Cn1c(C2(C)CCCS2)nc(C(=O)NCc2ccc(F)cc2)c(O)c1=O (racemic) | 5
* Cn1cnnc1-c1cc(F)ccc1CNC(=O)c1nc(C2CCOC2)n(C)c(=O)c1O (racemic) | 18
* Cc1ncnn1-c1cc(F)ccc1CNC(=O)c1nc(C2CCOCC2)n(C)c(=O)c1O | 8
* Cn1c(C2CCOC2)nc(C(=O)NCc2ccc(F)cc2)c(O)c1=O (racemic) | 4

Give Human immunodeficiency virus type 1 integrase (Human immunodeficiency virus 1) IC50 for Cn1c(C2CCOCC2)nc(C(=O)NCc2ccc(F)cc2N2CCN(C(C)(C)C)S2(=O)=O)c(O)c1=O
17

Try this compound too: Cn1c(C2CCOCC2)nc(C(=O)NCc2ccc(F)cc2S(C)(=O)=O)c(O)c1=O
8

Try this compound too: CN1C(C)(C)CN(c2cc(F)ccc2CNC(=O)c2nc(C3CCOCC3)n(C)c(=O)c2O)S1(=O)=O
6

Try this compound too: Cn1c(C2CCOC2)nc(C(=O)NCc2ccc(F)cc2N2CCN(C(C)(C)C)S2(=O)=O)c(O)c1=O (racemic)
16

Try this compound too: Cn1c(C2=CCOC2)nc(C(=O)NCc2ccc(F)cc2)c(O)c1=O
19

Try this compound too: Cn1c(C2CCOC2)nc(C(=O)NCc2ccc(F)cc2-n2cncn2)c(O)c1=O (racemic)
4

Try this compound too: Cc1cnnn1-c1cc(F)ccc1CNC(=O)c1nc(C2CCOC2)n(C)c(=O)c1O (racemic)
10

###

- Assay procedure: Cmax in Sprague-Dawley rat at 5 mg/kg, po
- Type: ADME, organism-based
- Set-up: dose 5 mg/kg, route oral
- Assay conditions: in vivo
Measured quantity: Cmax (µM)
Write the answer as a number in µM, unit excluded.

Please review the entries below; each comes with its answer.
- Cn1c(C2CCOC2)nc(C(=O)NCc2ccc(F)cc2)c(O)c1=O (racemic): 10.5
- Cn1c(C2CCOC2)nc(C(=O)NCc2ccc(F)cc2N2CCCCS2(=O)=O)c(O)c1=O (racemic): 3.51

Here is the next item to consider.
What Cmax value was documented for this compound, CSC1COCC1c1nc(C(=O)NCc2ccc(F)cc2)c(O)c(=O)n1C (racemic) ?
8.04

###

- Study target: Human immunodeficiency virus type 1 integrase (Human immunodeficiency virus 1)
// boundary case: IC50 equal to 9 nM maps to not satisfied; strictly smaller maps to satisfied

Record excerpt, results attached:
* CSC1COCC1c1nc(C(=O)NCc2ccc(F)cc2)c(O)c(=O)n1C (racemic) | satisfied
* Cn1c(C2COCC2O)nc(C(=O)NCc2ccc(F)cc2)c(O)c1=O (racemic) | satisfied
* Cc1cnnn1-c1cc(F)ccc1CNC(=O)c1nc(C2CCOCC2)n(C)c(=O)c1O | not satisfied
* COCCN1CCN(c2cc(F)ccc2CNC(=O)c2nc(C3CCOC3)n(C)c(=O)c2O)C1=O (racemic) | satisfied
* Cn1c(C2(C)CCCO2)nc(C(=O)NCc2ccc(F)cc2)c(O)c1=O (racemic) | satisfied
* Cc1ncnn1-c1cc(F)ccc1CNC(=O)c1nc(C2CCOC2)n(C)c(=O)c1O (racemic) | not satisfied
* CN1C(C)(C)CN(c2cc(F)ccc2CNC(=O)c2nc(C3CCOC3)n(C)c(=O)c2O)S1(=O)=O (racemic) | not satisfied
* CN1CCN(c2cc(F)ccc2CNC(=O)c2nc(C3CCOC3)n(C)c(=O)c2O)C1=O (racemic) | satisfied

Threshold test, IC50 < 9 nM: Cn1c(C2CCOCC2)nc(C(=O)NCc2ccc(F)cc2)c(O)c1=O
satisfied

Try this compound too: Cn1c(C2CCCCO2)nc(C(=O)NCc2ccc(F)cc2)c(O)c1=O (racemic)
not satisfied

Try this compound too: CN(C)S(=O)(=O)c1cc(F)ccc1CNC(=O)c1nc(C2CCOC2)n(C)c(=O)c1O (racemic)
not satisfied

Try this compound too: Cn1c(C2CCOCC2)nc(C(=O)NCc2ccc(F)cc2N2CCCCS2(=O)=O)c(O)c1=O
not satisfied

Try this compound too: CN(C)S(=O)(=O)c1cc(F)ccc1CNC(=O)c1nc(C2CCOCC2)n(C)c(=O)c1O
not satisfied

Data origin: ChEMBL document CHEMBL3351431
